# Tested on: NCI-H322M
# EXPERIMENT NOTES: Cytotoxicity against human NCI-H322M cells assessed as cellular growth at 10 uM by SRB assay
# Type: functional
MEASURED ATTRIBUTE: Activity (%)
// return numeric value only (unit: %, not printed)

Reference set (5 entries):
Cc1ccc(Cl)cc1NC(=O)c1sc2nc3c(cc2c1N)C(=O)CCC3 : 95.72
COc1ccc(S(=O)(=O)n2ccc(-c3ccc4c(c3)CCC(C)(C)O4)n2)cc1 : 101
O=C(NCc1ccc(Cl)cc1)c1[nH]c2ccccc2c1Cl : 113.2
Clc1ccccc1Nc1nnc(-c2ccncc2)s1 : 93.72
Cc1cc(C)c(NC(=O)c2sc3nc4c(cc3c2N)C(=O)CCC4)c(C)c1 : 56.34

Task: So what does the record say about Activity for "Cc1ccc(NC(=O)c2sc3nc4c(cc3c2N)C(=O)CCC4)c(Br)c1" ?
Output: 103.11

Task: So what does the record say about Activity for "Clc1cccc(-c2nc(-c3cccs3)no2)c1" ?
Output: 99.44

Task: So what does the record say about Activity for "Cc1ccc(S(=O)(=O)NC2=NC(=O)/C(=C\c3ccccc3)S2)cc1" ?
Output: 114.86
